- Measured On: E234G HYPE (Homo sapiens, UniProt Q9BVA6, E234G)
- Construct: Δ102 (aa 103-458) HYPE constructs (WT, E234G, and E234G/H363A); His6-SUMO (cleaved yes); made in house; host or cells: E. coli BL21-DE3-RILP
- Assay Protocol: Fluorescence polarization (FP) microplate autoAMPylation assay with Fl-ATP, E234G HYPE inhibitor HTS, cherrypick validation and concentration-response
- Type: biochemical
- Measurement Setup: mean of HTS and cherrypick
Assign Satisfied whenever Mean % Inh. does not fall below 30%; assign Not satisfied whenever it does.

[[record]]
molecule = "c1cn(-c2ccc(-c3nnc(-c4ccoc4)o3)cn2)cn1"
measured_on = "E234G HYPE (Homo sapiens, UniProt Q9BVA6, E234G)"
classification = "Not satisfied"


# input for lookup
Could you tell me if the measured Mean % Inh. of "Oc1ccc(CN2CCCCC2)c2cccnc12" reaches 30% or more? Not satisfied

----------
- Measured On: E234G HYPE (Homo sapiens, UniProt Q9BVA6, E234G)
- Construct: Δ102 (aa 103-458) HYPE constructs (WT, E234G, and E234G/H363A); His6-SUMO (cleaved yes); made in house; host or cells: E. coli BL21-DE3-RILP
- Sequence (Q9BVA6 103-458 E234G): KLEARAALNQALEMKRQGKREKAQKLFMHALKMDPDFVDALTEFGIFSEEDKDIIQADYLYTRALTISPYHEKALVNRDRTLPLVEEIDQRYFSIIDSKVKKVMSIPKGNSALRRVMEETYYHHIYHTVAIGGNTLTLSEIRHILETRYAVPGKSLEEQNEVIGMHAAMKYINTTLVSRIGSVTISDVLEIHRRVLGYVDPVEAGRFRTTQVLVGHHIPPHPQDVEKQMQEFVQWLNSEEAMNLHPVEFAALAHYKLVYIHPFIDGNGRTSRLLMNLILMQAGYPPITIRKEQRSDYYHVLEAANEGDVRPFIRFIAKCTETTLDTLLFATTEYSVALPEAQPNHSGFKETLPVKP
- Assay Protocol: Fluorescence polarization (FP) microplate autoAMPylation assay with Fl-ATP, E234G HYPE inhibitor HTS, cherrypick validation and concentration-response
- Format: biochemical
- Measurement Setup: initial HTS, 10 μM compound, normalized to WT and E234G HYPE DMSO controls; read-out: % Inh. HTS
Readout: inhibition at 10 µM (%)
Answer with a number only, understood to be in %.

[[record]]
compound = "Oc1cc(-c2ccc(F)cc2)nn1-c1nc2ccccc2[nH]1 [Compound I2.12]"
readout_value = 27.1

[[record]]
compound = "CN(Cc1ccccn1)C(C(=O)O)c1ccc2c(c1)OCO2 (centres unmarked) [Compound I2.2]"
readout_value = 20.3

[[record]]
compound = "Cc1nn(-c2nc3ccccc3[nH]2)c2c1C(c1cc(Br)ccc1F)CC(=O)N2 (centres unmarked) [Compound I2.6]"
readout_value = 32.7


According to the records, this compound Cc1nn(-c2nc3ccccc3[nH]2)c2c1C(c1ccc(F)cc1F)CC(=O)N2 (centres unmarked) [Compound I2.5] displays inhibition at 10 µM of 23.5

According to the records, this compound CCc1ccc(N2CC(c3noc(-c4ccc(C#N)cc4)n3)CC2=O)cc1 (centres unmarked) [Compound I2.9] displays inhibition at 10 µM of 27.2

----------
- Measured On: E234G HYPE (Homo sapiens, UniProt Q9BVA6, E234G)
- Construct: Δ102 (aa 103-458) HYPE constructs (WT, E234G, and E234G/H363A); His6-SUMO (cleaved yes); made in house; host or cells: E. coli BL21-DE3-RILP
- Assay Protocol: Fluorescence polarization (FP) microplate autoAMPylation assay with Fl-ATP, E234G HYPE inhibitor HTS, cherrypick validation and concentration-response
- Assay type: biochemical
- Measurement Setup: cherrypick validation, same FP assay, 10 μM compound; read-out: % Inh. Cherry-pick
Assign True whenever inhibition at 10 µM does not fall below 30%; assign False whenever it does.

The following compounds have reported results that may help.
[[record]]
compound = "CCCc1cc(O)n(-c2nc3ccccc3[nH]2)n1"
measured_on = "E234G HYPE (Homo sapiens, UniProt Q9BVA6, E234G)"
classification = "True"

[[record]]
compound = "CCc1ccc(N2CC(c3noc(-c4ccc(C#N)cc4)n3)CC2=O)cc1 (centres unmarked)"
measured_on = "E234G HYPE (Homo sapiens, UniProt Q9BVA6, E234G)"
classification = "False"

[[record]]
compound = "O=C1Nc2ccc(Br)cc2C12NN=C(c1ccccc1)S2 (centres unmarked)"
measured_on = "E234G HYPE (Homo sapiens, UniProt Q9BVA6, E234G)"
classification = "True"

[[record]]
compound = "Oc1cc(-c2ccc(F)cc2)nn1-c1nc2ccccc2[nH]1"
measured_on = "E234G HYPE (Homo sapiens, UniProt Q9BVA6, E234G)"
classification = "True"

[[record]]
compound = "Cc1nn(-c2nc3ccccc3[nH]2)c2c1C(c1ccc(F)cc1F)CC(=O)N2 (centres unmarked)"
measured_on = "E234G HYPE (Homo sapiens, UniProt Q9BVA6, E234G)"
classification = "True"


Could you tell me if the measured inhibition at 10 µM of CN(Cc1ccccn1)C(C(=O)O)c1ccc2c(c1)OCO2 (centres unmarked) reaches 30% or more? False

----------
- Measured On: E234G HYPE (Homo sapiens, UniProt Q9BVA6, E234G)
- Construct: Δ102 (aa 103-458) HYPE constructs (WT, E234G, and E234G/H363A); His6-SUMO (cleaved yes); made in house; host or cells: E. coli BL21-DE3-RILP
- Assay Protocol: Fluorescence polarization (FP) microplate autoAMPylation assay with Fl-ATP, E234G HYPE inhibitor HTS, cherrypick validation and concentration-response
- Format: biochemical
- Measurement Setup: mean of HTS and cherrypick
Assign Met whenever Mean % Inh. does not fall below 30%; assign Not met whenever it does.

The following molecules have reported results that may help.
[[record]]
molecule = "O=C1Nc2ccc(Br)cc2C12NN=C(c1ccccc1)S2 (stereo not drawn)"
measured_on = "E234G HYPE (Homo sapiens, UniProt Q9BVA6, E234G)"
classification = "Not met"

[[record]]
molecule = "CN(Cc1ccccn1)C(C(=O)O)c1ccc2c(c1)OCO2 (stereo not drawn)"
measured_on = "E234G HYPE (Homo sapiens, UniProt Q9BVA6, E234G)"
classification = "Not met"

[[record]]
molecule = "CCCCn1ccnc1C1CCCN(Cc2ccccn2)C1 (stereo not drawn)"
measured_on = "E234G HYPE (Homo sapiens, UniProt Q9BVA6, E234G)"
classification = "Met"


Could you tell me if the measured Mean % Inh. of CCc1ccc(N2CC(c3noc(-c4ccc(C#N)cc4)n3)CC2=O)cc1 (stereo not drawn) reaches 30% or more? Not met

Could you tell me if the measured Mean % Inh. of Cc1nn(-c2nc3ccccc3[nH]2)c2c1C(c1ccc(F)cc1F)CC(=O)N2 (stereo not drawn) reaches 30% or more? Not met

Could you tell me if the measured Mean % Inh. of "CN(Cc1cccc2cnccc12)C(=O)c1cnc(-c2ccccn2)nc1O" reaches 30% or more? Met

Could you tell me if the measured Mean % Inh. of Cc1nn(-c2nc3ccccc3[nH]2)c2c1C(c1cc(Br)ccc1F)CC(=O)N2 (stereo not drawn) reaches 30% or more? Met

----------
- Measured On: E234G HYPE (Homo sapiens, UniProt Q9BVA6, E234G)
- Construct: Δ102 (aa 103-458) HYPE constructs (WT, E234G, and E234G/H363A); His6-SUMO (cleaved yes); made in house; host or cells: E. coli BL21-DE3-RILP
- Assay Protocol: Fluorescence polarization (FP) microplate autoAMPylation assay with Fl-ATP, E234G HYPE inhibitor HTS, cherrypick validation and concentration-response
- Type: biochemical
- Measurement Setup: initial HTS, 10 μM compound, normalized to WT and E234G HYPE DMSO controls; read-out: % Inh. HTS
- Experimental: Buffer optimization experiments were performed by incubating 0.4 μM of Δ102 HYPE enzyme with 25 nM Fl-ATP (final concentrations) in HTS buffer (50 mM HEPES (pH 7.5), 1 mM MgCl2, 0.1% Triton X-100, 1% DMSO) in the dark at room temperature for 10 min in 384-well black bottom, black wall microplates (20 μL reaction volume). […] Microplates were loaded onto a BioTek BioStack NEO2 plate-reader and assessed for fluorescence polarization with 485/530 nm filters and a 55/50 gain adjustment. […]
Here the recorded inhibition at 10 µM is given for each entry.

[[record]]
compound = "CCCc1cc(O)n(-c2nc3ccccc3[nH]2)n1 [Compound I2.4]"
measured_on = "E234G HYPE (Homo sapiens, UniProt Q9BVA6, E234G)"
readout = "inhibition at 10 µM"
readout_value = "27.8%"

[[record]]
compound = "O=C1Nc2ccc(Br)cc2C12NN=C(c1ccccc1)S2 (stereo not drawn) [Compound I2.7]"
measured_on = "E234G HYPE (Homo sapiens, UniProt Q9BVA6, E234G)"
readout = "inhibition at 10 µM"
readout_value = "20.9%"


// moving on: another record for inhibition at 10 µM
According to the records, this compound c1cn(-c2ccc(-c3nnc(-c4ccoc4)o3)cn2)cn1 [Compound I2.10] displays inhibition at 10 µM of 24.5%
